I'd appreciate it if you could supply melting point values for the items below.

These recorded examples may help you get a feel for the data.
COMPOUND: NC(=O)C(=O)c1ccc(-c2noc(C(F)(F)F)n2)cc1
MEASURED: 146.7 to 149.7 °C
//
COMPOUND: COC(CNC(=O)C(=O)c1ccc(-c2noc(C(F)(F)F)n2)cc1)OC
MEASURED: 88 to 89 °C
//
COMPOUND: CC(C)CNC(=O)C(=O)c1ccc(-c2noc(C(F)(F)F)n2)cc1
MEASURED: 83 to 85.3 °C
//
COMPOUND: O=C(C(=O)N1CCOCC1)c1ccc(-c2noc(C(F)(F)F)n2)cc1
MEASURED: 140 to 144 °C
//
COMPOUND: O=C(C(=O)N1CCCC1)c1ccc(-c2noc(C(F)(F)F)n2)cc1
MEASURED: 104 to 110 °C

Report melting point for each item below.
1. COC(=O)CNC(=O)C(=O)c1ccc(-c2noc(C(F)(F)F)n2)cc1
2. O=C(NC1CCCC1(F)F)C(=O)c1ccc(-c2noc(C(F)(F)F)n2)cc1 (stereo not drawn)

[A]
89 to 90 °C
64 to 70 °C

Report melting point for each item below.
1. O=C(NCCO)C(=O)c1ccc(-c2noc(C(F)(F)F)n2)cc1
2. CN(C)NC(=O)C(=O)c1ccc(-c2noc(C(F)(F)F)n2)cc1

[A]
147 to 148 °C
134 to 138 °C

====

I'd appreciate it if you could supply inhibition at 20 ppm values for the items below.
Tested on: Glomerella lagenarium (Colletotrichum lagenarium)
METHOD_SUMMARY: Fungicidal activity against Glomerella lagenarium (Colletotrichum lagenarium) liquid culture / cucumber / preventative (anthracnose)
Format: cell-based
TEST_CONTEXT: Colletotrichum orbiculare; 20 ppm in the applied formulation; liquid culture in PDB, 24° C.; 3 to 4 days after application; read-out: disease control compared to untreated control (inhibition of growth measured photometrically)

These recorded examples may help you get a feel for the data.
COMPOUND: CCON(C)C(=O)C(=O)c1ccc(-c2noc(C(F)(F)F)n2)cc1
inhibition at 20 ppm: ≥ 80%
//
COMPOUND: CC(=O)NCCNC(=O)C(=O)c1ccc(-c2noc(C(F)(F)F)n2)cc1
inhibition at 20 ppm: ≥ 80%
//
COMPOUND: CC(C)NC(=O)C(=O)c1ccc(-c2noc(C(F)(F)F)n2)cc1
inhibition at 20 ppm: ≥ 80%
//
COMPOUND: CN(C)C(=O)C(=O)c1ccc(-c2noc(C(F)(F)F)n2)cc1
inhibition at 20 ppm: ≥ 80%

Report inhibition at 20 ppm for each item below.
1. CSCCNC(=O)C(=O)c1ccc(-c2noc(C(F)(F)F)n2)cc1
2. CON1CCN(C(=O)C(=O)c2ccc(-c3noc(C(F)(F)F)n3)cc2)CC1
3. CCCNC(=O)C(=O)c1ccc(-c2noc(C(F)(F)F)n2)cc1
4. O=C(NCC1COCCO1)C(=O)c1ccc(-c2noc(C(F)(F)F)n2)cc1 (stereo not drawn)

[A]
≥ 80%
≥ 80%
≥ 80%
≥ 80%

[Q] Fill in: inhibition at 20 ppm of O=C(NC1CC1)C(=O)c1ccc(-c2noc(C(F)(F)F)n2)cc1 is ___
[A] ≥ 80%

====

I'd appreciate it if you could supply inhibition at 20 ppm values for the items below.
Test system: Glomerella lagenarium (Colletotrichum lagenarium)
METHOD_SUMMARY: Fungicidal activity against Glomerella lagenarium (Colletotrichum lagenarium) liquid culture / cucumber / preventative (anthracnose)
Assay type: cell-based
TEST_CONTEXT: Colletotrichum orbiculare; 20 ppm in the applied formulation; liquid culture in PDB, 24° C.; 3 to 4 days after application; read-out: disease control compared to untreated control (inhibition of growth measured photometrically)

These recorded examples may help you get a feel for the data.
INPUT_SMILES: CN(C)CCNC(=O)C(=O)c1ccc(-c2noc(C(F)(F)F)n2)cc1
MEASURED: ≥ 80%
//
INPUT_SMILES: COCCN(CCOC)C(=O)C(=O)c1ccc(-c2noc(C(F)(F)F)n2)cc1
MEASURED: ≥ 80%
//
INPUT_SMILES: COC(=O)CNC(=O)C(=O)c1ccc(-c2noc(C(F)(F)F)n2)cc1
MEASURED: ≥ 80%
//
INPUT_SMILES: Cl.NCCNC(=O)C(=O)c1ccc(-c2noc(C(F)(F)F)n2)cc1
MEASURED: ≥ 80%
//
INPUT_SMILES: O=C(C(=O)N1CCCC1)c1ccc(-c2noc(C(F)(F)F)n2)cc1
MEASURED: ≥ 80%

Report inhibition at 20 ppm for each item below.
1. O=C(C(=O)N1CCOCC1)c1ccc(-c2noc(C(F)(F)F)n2)cc1
2. COc1cccc(NC(=O)C(=O)c2ccc(-c3noc(C(F)(F)F)n3)cc2)n1
3. O=C(NCC(F)F)C(=O)c1ccc(-c2noc(C(F)(F)F)n2)cc1

[A]
["≥ 80%", "≥ 80%", "≥ 80%"]

[Q] Fill in: inhibition at 20 ppm of O=C(NCC1CC1)C(=O)c1ccc(-c2noc(C(F)(F)F)n2)cc1 is ___
[A] ≥ 80%

====

I'd appreciate it if you could supply melting point values for the items below.

These recorded examples may help you get a feel for the data.
COMPOUND: C=CCNC(=O)C(=O)c1ccc(-c2noc(C(F)(F)F)n2)cc1
PROPERTY_MEASURED: melting point
MEASURED: 71 to 74 °C

COMPOUND: CCN1OCC(NC(=O)C(=O)c2ccc(-c3noc(C(F)(F)F)n3)cc2)C1=O (stereo not drawn)
PROPERTY_MEASURED: melting point
MEASURED: 162 to 165 °C

COMPOUND: COc1cccc(NC(=O)C(=O)c2ccc(-c3noc(C(F)(F)F)n3)cc2)n1
PROPERTY_MEASURED: melting point
MEASURED: 118 to 120 °C

COMPOUND: O=C(NC1COC1)C(=O)c1ccc(-c2noc(C(F)(F)F)n2)cc1
PROPERTY_MEASURED: melting point
MEASURED: 131 to 136 °C

COMPOUND: Cl.NCCNC(=O)C(=O)c1ccc(-c2noc(C(F)(F)F)n2)cc1
PROPERTY_MEASURED: melting point
MEASURED: 213 to 214 °C

COMPOUND: O=C(NCC1CC1)C(=O)c1ccc(-c2noc(C(F)(F)F)n2)cc1
PROPERTY_MEASURED: melting point
MEASURED: 86 to 95 °C

COMPOUND: N#CCNC(=O)C(=O)c1ccc(-c2noc(C(F)(F)F)n2)cc1
PROPERTY_MEASURED: melting point
MEASURED: 143.6 to 147.6 °C

COMPOUND: O=C(NCc1ccccc1F)C(=O)c1ccc(-c2noc(C(F)(F)F)n2)cc1
PROPERTY_MEASURED: melting point
MEASURED: 84 to 86 °C

Report melting point for each item below.
1. CC(C)NC(=O)C(=O)c1ccc(-c2noc(C(F)(F)F)n2)cc1
2. CNC(=O)C(=O)c1ccc(-c2noc(C(F)(F)F)n2)cc1
3. O=C(NCCF)C(=O)c1ccc(-c2noc(C(F)(F)F)n2)cc1

[A]
1: 96 to 97.7 °C; 2: 128.1 to 130.8 °C; 3: 94 to 100 °C

Report melting point for each item below.
1. CCNC(=O)C(=O)c1ccc(-c2noc(C(F)(F)F)n2)cc1
2. O=C(NCCNC(=O)C1CC1)C(=O)c1ccc(-c2noc(C(F)(F)F)n2)cc1

[A]
1: 105 to 110 °C; 2: 209 to 210 °C

Report melting point for each item below.
1. CNC(=O)CNC(=O)C(=O)c1ccc(-c2noc(C(F)(F)F)n2)cc1
2. CC(C)(C)OC(=O)NCCNC(=O)C(=O)c1ccc(-c2noc(C(F)(F)F)n2)cc1
3. CCCCNC(=O)C(=O)c1ccc(-c2noc(C(F)(F)F)n2)cc1

[A]
1: 167 to 168 °C; 2: 155 to 156 °C; 3: 65.1 to 68.2 °C

Report melting point for each item below.
1. O=C(NC1CC1)C(=O)c1ccc(-c2noc(C(F)(F)F)n2)cc1
2. C#CCNC(=O)C(=O)c1ccc(-c2noc(C(F)(F)F)n2)cc1

[A]
1. 113.1 to 116 °C
2. 79 to 84 °C
